assay: Cmax in Sprague-Dawley rat at 2 mg/kg, iv administered as single bolus dose measured by LC-MS/MS method; type: ADME, organism-based; set-up: dose 2 mg/kg, route intravenous; details: in vivo
readout_type: Cmax (ng/mL)
Give just the numeric value; ng/mL need not be written.

Provide one value: measured Cmax of CCCN(CCC)CCCCOc1cc2oc3cc(OCCCCN(CCC)CCC)c(OC)c(CC=C(C)C)c3c(=O)c2c(O)c1CC=C(C)C
1500

----------
assay: Terminal half life in Sprague-Dawley rat at 2 mg/kg administered via oral gavage measured by LC-MS/MS method; assay type: ADME, organism-based; details: in vivo, read-out: beta t1/2 (converted)
readout_type: half-life (min)
Just the number in min, nothing appended.

Supply half-life value. Item: CCCN(CCC)CCCCOc1cc2oc3cc(OCCCCN(CCC)CCC)c(OC)c(CC=C(C)C)c3c(=O)c2c(O)c1CC=C(C)C
287
